# system.tested: α-synuclein (UniProt P37840 1-140); also: test concentration or dose not given here
# protocol: cell-based or functional assay
Non-standard residues stand in square brackets, D forms with d.
outcome.measure: % decrease in rate of aggregation (%)

[
  {
    "binder": "H-[dQ][dY][dK][dV][dL][dI]-NH2 (SMILES CC[C@@H](C)[C@@H](NC(=O)[C@@H](CC(C)C)NC(=O)[C@H](NC(=O)[C@@H](CCCCN)NC(=O)[C@@H](Cc1ccc(O)cc1)NC(=O)[C@H](N)CCC(N)=O)C(C)C)C(N)=O) [ZP-0222]",
    "unit": "%",
    "% decrease in rate of aggregation": 34.3
  },
  {
    "binder": "H-[dP][dY][dS][dV][dL][dI]-NH2 (SMILES CC[C@@H](C)[C@@H](NC(=O)[C@@H](CC(C)C)NC(=O)[C@H](NC(=O)[C@@H](CO)NC(=O)[C@@H](Cc1ccc(O)cc1)NC(=O)[C@H]1CCCN1)C(C)C)C(N)=O) [ZP-0228]",
    "unit": "%",
    "% decrease in rate of aggregation": 46.2
  }
]

[I] Ac-[dR][dY][dS][dV][dL][dI]-NH2 (SMILES CC[C@@H](C)[C@@H](NC(=O)[C@@H](CC(C)C)NC(=O)[C@H](NC(=O)[C@@H](CO)NC(=O)[C@@H](Cc1ccc(O)cc1)NC(=O)[C@@H](CCCNC(=N)N)NC(C)=O)C(C)C)C(N)=O) [ZP-0212]
[II] Ac-[dH][dH][dT][dL][dV][dA]-NH2 (SMILES CC(=O)N[C@H](Cc1c[nH]cn1)C(=O)N[C@H](Cc1c[nH]cn1)C(=O)N[C@@H](C(=O)N[C@H](CC(C)C)C(=O)N[C@@H](C(=O)N[C@H](C)C(N)=O)C(C)C)[C@H](C)O) [ZP-0181]
[III] Ac-[dH][dH][dV][dI][dV][dY]-NH2 (SMILES CC[C@@H](C)[C@@H](NC(=O)[C@H](NC(=O)[C@@H](Cc1c[nH]cn1)NC(=O)[C@@H](Cc1c[nH]cn1)NC(C)=O)C(C)C)C(=O)N[C@@H](C(=O)N[C@H](Cc1ccc(O)cc1)C(N)=O)C(C)C) [ZP-0171]
[IV] Ac-[dH][dH][dV][dK][dV][dA]-NH2 (SMILES CC(=O)N[C@H](Cc1c[nH]cn1)C(=O)N[C@H](Cc1c[nH]cn1)C(=O)N[C@@H](C(=O)N[C@H](CCCCN)C(=O)N[C@@H](C(=O)N[C@H](C)C(N)=O)C(C)C)C(C)C) [ZP-0161]
Exercise: Would you mind ranking these binders by ascending % decrease in rate of aggregation? Answer by naming the labels in the order asked.
Key: II, IV, III, I
(II: -1.2%, IV: 2.3%, III: 13.2%, I: 44.9%)
